Test system: RAC-beta serine/threonine-protein kinase (Homo sapiens), P31751 [S474D]
Sequence (P31751 whole entry S474D): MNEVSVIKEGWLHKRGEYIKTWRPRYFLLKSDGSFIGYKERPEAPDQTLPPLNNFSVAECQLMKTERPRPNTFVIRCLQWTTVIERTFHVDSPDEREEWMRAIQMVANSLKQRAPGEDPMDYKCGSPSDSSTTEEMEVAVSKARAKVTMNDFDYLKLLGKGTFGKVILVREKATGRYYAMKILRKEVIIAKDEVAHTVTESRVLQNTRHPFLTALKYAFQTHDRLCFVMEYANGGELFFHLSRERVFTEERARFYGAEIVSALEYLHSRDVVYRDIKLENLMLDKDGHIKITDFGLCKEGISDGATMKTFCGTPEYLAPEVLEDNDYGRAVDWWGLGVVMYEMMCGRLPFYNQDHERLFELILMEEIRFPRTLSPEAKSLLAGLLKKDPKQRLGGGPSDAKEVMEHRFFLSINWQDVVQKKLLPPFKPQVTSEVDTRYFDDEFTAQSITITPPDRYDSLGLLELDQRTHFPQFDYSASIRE
Test: Inhibition of full length human Akt2 S474D mutant assessed as remaining activity at 1 uM using GRPRTSSFAEGKK as substrate incubated for 40 mins by scintillation counting method relative to control
readout-name: Activity (%)
API: value field is a number in %; no unit string.

> print(dat)
                                   molecule                       experimental.target  data.value
1  CC(C)NCC(C(=O)N1CCN(c2ncnc3sc4c(c23)CCN(C)C4)CC1)c1ccc(Cl)cc1 (stereo not given)  RAC-beta serine/threonine-protein kinase (Homo sapiens), P31751 [S474D]          91

## Task Request the reported Activity associated with CCCCNCC(C(=O)N1CCN(c2ncnc3sc4c(c23)CCN(C)C4)CC1)c1ccc(Cl)cc1 (stereo not given)
## Result 93

## Task Request the reported Activity associated with CC(C)NCC(C(=O)N1CCN(c2ncnc3sc4c(c23)CCN(C(C)C)C4)CC1)c1ccc(Cl)cc1 (stereo not given)
## Result 81

## Task Request the reported Activity associated with CC(C)NCC(C(=O)N1CCN(c2ncnc3sc4c(c23)CCC4)CC1)c1ccc(Br)cc1 (stereo not given)
## Result 67

## Task Request the reported Activity associated with CCCN1CCc2c(sc3ncnc(N4CCN(C(=O)C(CNC(C)C)c5ccc(Cl)cc5)CC4)c23)C1 (stereo not given)
## Result 89
